Where do the numbers come from? From paper PMC5353646.

Molecular target: T1, non-farnesylated human PEX19 C-terminal domain (residues 161-299) (human, UniProt P40855 161-299)
T1 construct: Peroxisomal biogenesis factor 19 (PEX19), human, C-terminal domain, residues 161-299 with the native C-terminus and CaaX box; 15N- (or 13C/2H-) labelled for NMR; Expressed from pETM11; also called PEX19 CTD; non-farnesylated PEX19 CTD; source: E. coli BL21 (DE3), purified (Ni-NTA, TEV cleavage, size-exclusion chromatography)
T1 sequence (looked up): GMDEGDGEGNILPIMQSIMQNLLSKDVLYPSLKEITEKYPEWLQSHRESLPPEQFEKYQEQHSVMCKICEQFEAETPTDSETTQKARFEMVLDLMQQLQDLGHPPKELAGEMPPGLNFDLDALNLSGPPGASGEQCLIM
Assay: MST; fluorescein-PEX11B peptide (200 nM stock) constant, unlabelled PEX19 CTD serially diluted from 612 uM to 18 nM; 20 mM potassium phosphate pH 6.5, 50 mM NaCl, 20% methanol, 0.1% Tween; three measurements
Conditions: both partners purified
No end group written: not given here. fluorescein = fluorescein label on the N-terminus
measured.attribute: pKd
Numbers only, as −log10 of the molar value.

Prompt: pKd for fluorescein-LALKLRLQVLLLARV (PEX11B, human, residues 186-200; also called PEX11-derived peptide; source: bought: Peptide Specialty Laboratories GmbH, Heidelberg) [N-terminally fluorescein-labelled PEX11B peptide (residues 186-200 of human PEX11B)] ?
Response: 4.53
